Protein target, amino acids: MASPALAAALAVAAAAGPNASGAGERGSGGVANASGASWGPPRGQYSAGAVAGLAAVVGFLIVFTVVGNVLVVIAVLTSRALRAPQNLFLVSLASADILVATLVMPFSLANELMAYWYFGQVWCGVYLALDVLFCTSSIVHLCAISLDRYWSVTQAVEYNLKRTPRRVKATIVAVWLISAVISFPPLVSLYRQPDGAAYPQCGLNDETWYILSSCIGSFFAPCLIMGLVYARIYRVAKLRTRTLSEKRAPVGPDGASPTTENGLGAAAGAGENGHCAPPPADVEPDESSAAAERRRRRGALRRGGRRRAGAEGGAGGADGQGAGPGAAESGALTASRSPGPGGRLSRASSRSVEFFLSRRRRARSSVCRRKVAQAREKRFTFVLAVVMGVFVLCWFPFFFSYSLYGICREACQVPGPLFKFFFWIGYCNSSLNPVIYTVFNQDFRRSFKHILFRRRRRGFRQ
Structures can show the parent of a compound that is named as a salt.
measurementLabel: Ki

Cc1ccc2c(c1)Oc1sc(C)cc1C(N1CCN(CC(C)(C)C(=O)O)CC1)=N2 [Example 2, dihydrochloride] :: > 5.55 µM

====

targetSystem: Dopamine D3 (Homo sapiens)
Sequence (P35462 whole entry): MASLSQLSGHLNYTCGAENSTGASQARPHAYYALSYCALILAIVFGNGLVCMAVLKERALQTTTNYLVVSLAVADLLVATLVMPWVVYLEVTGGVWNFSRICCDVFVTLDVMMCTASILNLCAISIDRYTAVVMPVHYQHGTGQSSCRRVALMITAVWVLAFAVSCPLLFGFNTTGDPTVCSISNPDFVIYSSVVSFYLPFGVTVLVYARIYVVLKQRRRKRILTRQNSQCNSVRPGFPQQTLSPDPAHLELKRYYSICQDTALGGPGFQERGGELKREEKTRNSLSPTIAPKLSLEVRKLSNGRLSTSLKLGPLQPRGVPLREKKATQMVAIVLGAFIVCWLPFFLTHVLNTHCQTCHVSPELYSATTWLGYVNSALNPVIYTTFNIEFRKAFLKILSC
pKi: −log10 of the molar value. Structures can show the parent of a compound that is named as a salt.
measurementLabel: pKi

Cc1ccc2c(c1)Oc1sc(C)cc1C(N1CCN(CC(C)(C)C(=O)O)CC1)=N2 [Example 2, dihydrochloride] :: < 5.25

====

targetSystem: 5-HT7 (Homo sapiens)
Sequence (P34969 whole entry, species assumed): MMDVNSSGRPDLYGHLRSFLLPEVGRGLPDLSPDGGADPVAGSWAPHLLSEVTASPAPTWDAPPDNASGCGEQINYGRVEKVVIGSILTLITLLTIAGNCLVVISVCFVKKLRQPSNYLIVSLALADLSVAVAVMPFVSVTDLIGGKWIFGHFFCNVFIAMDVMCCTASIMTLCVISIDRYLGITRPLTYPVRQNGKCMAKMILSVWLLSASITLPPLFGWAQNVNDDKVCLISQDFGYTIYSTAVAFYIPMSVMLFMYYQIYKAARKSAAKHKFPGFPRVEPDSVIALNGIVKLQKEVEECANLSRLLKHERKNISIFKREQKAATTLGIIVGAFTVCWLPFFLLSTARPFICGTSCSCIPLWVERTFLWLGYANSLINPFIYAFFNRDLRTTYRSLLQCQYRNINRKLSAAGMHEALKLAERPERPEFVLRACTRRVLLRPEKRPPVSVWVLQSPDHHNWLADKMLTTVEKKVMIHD
Structures can show the parent of a compound that is named as a salt.
measurementLabel: Ki

Cc1ccc2c(c1)Oc1sc(C)cc1C(N1CCN(CC(C)(C)C(=O)O)CC1)=N2 [Example 2, dihydrochloride] :: > 2.06 µM

====

targetSystem: recombinant H1 receptor (human) (Homo sapiens)
Sequence (P35367 whole entry): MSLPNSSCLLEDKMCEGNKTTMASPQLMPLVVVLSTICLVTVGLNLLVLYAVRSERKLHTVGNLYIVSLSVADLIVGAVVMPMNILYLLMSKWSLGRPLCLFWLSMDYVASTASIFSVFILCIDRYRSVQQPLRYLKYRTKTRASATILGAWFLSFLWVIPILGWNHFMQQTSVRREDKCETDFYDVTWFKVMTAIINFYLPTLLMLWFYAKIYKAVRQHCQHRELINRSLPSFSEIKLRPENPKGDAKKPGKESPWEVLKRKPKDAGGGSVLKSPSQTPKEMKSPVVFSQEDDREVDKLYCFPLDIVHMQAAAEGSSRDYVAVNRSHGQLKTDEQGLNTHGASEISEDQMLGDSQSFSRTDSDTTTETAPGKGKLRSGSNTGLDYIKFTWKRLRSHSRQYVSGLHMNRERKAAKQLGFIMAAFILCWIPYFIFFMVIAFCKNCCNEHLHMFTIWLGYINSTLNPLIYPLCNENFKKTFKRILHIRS
testProtocol: H1 competition binding assay ([3H]-Pyrilamine, SPA)
Experimental: [^3H]-Pyrilamine binding experiments are carried out in SPA (scintillation proximity assay) 96-well format. Membranes used in this assay are prepared from HEK-293 cells stably expressing recombinant H1 receptor (human). […] Non-specific binding is determined in the presence of 10 μM Triprolidine. Samples are incubated for 4 hr. at room temperature (22° C.) and then read in a Microbeta Trilux. […]
Counter-ions that a name gives are not always drawn.
measurementLabel: Ki (nM)

Cc1ccc2c(c1)Oc1sc(C)cc1C(N1CCN(CC(C)(C)C(=O)O)CC1)=N2 [Example 2, dihydrochloride] :: 131

====

targetSystem: Adrenergic alpha1B (Homo sapiens)
Sequence (P35368 1-520): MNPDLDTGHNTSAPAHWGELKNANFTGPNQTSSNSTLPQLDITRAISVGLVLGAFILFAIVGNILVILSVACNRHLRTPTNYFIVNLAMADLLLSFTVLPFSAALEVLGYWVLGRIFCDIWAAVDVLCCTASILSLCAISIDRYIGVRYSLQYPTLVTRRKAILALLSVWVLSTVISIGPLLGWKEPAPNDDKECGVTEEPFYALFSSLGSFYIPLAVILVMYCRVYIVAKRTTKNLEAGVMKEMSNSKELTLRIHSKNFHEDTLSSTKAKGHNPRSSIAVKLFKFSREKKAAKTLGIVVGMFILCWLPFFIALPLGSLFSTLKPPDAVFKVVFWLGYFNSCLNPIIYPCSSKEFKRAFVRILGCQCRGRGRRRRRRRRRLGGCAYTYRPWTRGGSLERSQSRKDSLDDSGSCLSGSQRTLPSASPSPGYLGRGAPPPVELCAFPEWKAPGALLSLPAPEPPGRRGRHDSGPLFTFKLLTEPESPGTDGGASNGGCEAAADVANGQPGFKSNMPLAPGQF
pKi: −log10 of the molar value. Structures can show the parent of a compound that is named as a salt.
measurementLabel: pKi

Cc1ccc2c(c1)Oc1sc(C)cc1C(N1CCN(CC(C)(C)C(=O)O)CC1)=N2 [Example 2, dihydrochloride] :: < 4.79
